# assayed_target: Recombinant human Ab1 (Homo sapiens, UniProt P00519)
# Construct: from 27th to 1149th amino acids
# Sequence (P00519 27-1149 isoform P00519-2): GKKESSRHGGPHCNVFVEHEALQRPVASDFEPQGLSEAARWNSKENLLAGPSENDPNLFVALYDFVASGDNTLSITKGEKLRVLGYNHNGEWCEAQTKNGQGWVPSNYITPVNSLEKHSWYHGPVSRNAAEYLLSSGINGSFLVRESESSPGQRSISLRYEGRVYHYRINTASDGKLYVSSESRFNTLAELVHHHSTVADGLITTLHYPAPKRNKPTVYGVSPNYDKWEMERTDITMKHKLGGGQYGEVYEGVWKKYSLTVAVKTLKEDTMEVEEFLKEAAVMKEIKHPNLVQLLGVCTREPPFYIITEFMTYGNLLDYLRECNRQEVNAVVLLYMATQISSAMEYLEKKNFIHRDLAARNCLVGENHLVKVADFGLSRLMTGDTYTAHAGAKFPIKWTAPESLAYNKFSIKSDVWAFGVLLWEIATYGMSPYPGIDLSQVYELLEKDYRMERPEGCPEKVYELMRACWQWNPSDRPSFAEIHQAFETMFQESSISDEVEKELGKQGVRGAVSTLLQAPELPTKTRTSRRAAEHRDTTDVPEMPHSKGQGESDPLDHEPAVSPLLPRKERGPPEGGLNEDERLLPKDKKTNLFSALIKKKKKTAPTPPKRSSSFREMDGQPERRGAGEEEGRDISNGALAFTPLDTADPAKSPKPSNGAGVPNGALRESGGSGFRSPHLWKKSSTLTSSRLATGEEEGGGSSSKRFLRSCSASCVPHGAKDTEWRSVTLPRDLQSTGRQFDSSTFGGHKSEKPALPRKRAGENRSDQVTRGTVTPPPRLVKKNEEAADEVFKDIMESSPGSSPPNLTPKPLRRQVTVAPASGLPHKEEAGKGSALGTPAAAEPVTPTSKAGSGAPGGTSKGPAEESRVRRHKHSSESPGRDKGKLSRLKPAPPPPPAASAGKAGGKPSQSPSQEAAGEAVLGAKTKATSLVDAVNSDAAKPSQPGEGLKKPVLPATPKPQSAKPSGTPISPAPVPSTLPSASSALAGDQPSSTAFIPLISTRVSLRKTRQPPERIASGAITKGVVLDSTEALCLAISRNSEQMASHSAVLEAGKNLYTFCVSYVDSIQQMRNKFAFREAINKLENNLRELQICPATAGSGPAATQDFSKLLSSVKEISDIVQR
# protocol_summary: Abl kinase assay (Kinase-Glo ATP consumption)
# measurement_setup: 1 μM ATP; read-out: Kinase Inhibiting Activity (IC50) Abl
metric: IC50

>>> result("CNCC(=O)N1CCCN(S(=O)(=O)c2cccc3cncc(F)c23)[C@@H](C)C1.Cl.Cl [Example 2, dihydrochloride]")
"> 100 µM"

###

Reported Realative Inhibitory Activity CaMKII is given for each of the following compounds.
# Tested on: Purified rat CaMKII
# protocol_summary: CaMKII kinase assay (Kinase-Glo ATP consumption)
# Assay type: biochemical
# measurement_setup: relative ratio to ROCKII (=1.0), based on IC50 values
# Experimental: Purified rat CaMKII (containing CaMKIIα and small amounts of β, γ, and δ isoforms, Upstate) was used to evaluate its activity to phosphorylate a substrate peptide (KKALRRQETVDAL, Upstate). […] With this system, the kinase reaction was carried out in the presence of a compound at various concentrations, and the IC50 value of the compound was determined based on the resulting compound concentration-response curve for ATP consumption. […]
Structures can show the parent of a compound that is named as a salt.
metric: Realative Inhibitory Activity CaMKII

>>> result("CC[C@H](N)C(=O)N1CCCN(S(O)(O)c2cccc3cncc(F)c23)[C@@H](C)C1 [Example 11, dihydrochloride]")
364
>>> result("CC[C@@H](N)C(=O)N1CCCN(S(O)(O)c2cccc3cncc(F)c23)[C@@H](C)C1 [Example 12, dihydrochloride]")
">300"
>>> result("CC(C)[C@@H](N)C(=O)N1CCCN(S(O)(O)c2cccc3cncc(F)c23)[C@@H](C)C1 [Example 6, dihydrochloride]")
">300"
>>> result("CNCC(=O)N1CCCN(S(=O)(=O)c2cccc3cncc(F)c23)[C@@H](C)C1.Cl.Cl [Example 2]")
890
>>> result("C[C@H](N)C(=O)N1CCCN(S(O)(O)c2cccc3cncc(F)c23)[C@@H](C)C1 [Example 3, dihydrochloride]")
135

###

# assayed_target: Purified rat CaMKII (Rattus norvegicus)
pIC50: −log10 of the molar value.
metric: pIC50

>>> number("CNCC(=O)N1CCCN(S(=O)(=O)c2cccc3cncc(F)c23)[C@@H](C)C1.Cl.Cl [Example 2, dihydrochloride]")
4.57

###

# assayed_target: Recombinant human AuroraA (Homo sapiens, UniProt O14965)
# Construct: purchased Upstate
# Sequence (O14965 whole entry): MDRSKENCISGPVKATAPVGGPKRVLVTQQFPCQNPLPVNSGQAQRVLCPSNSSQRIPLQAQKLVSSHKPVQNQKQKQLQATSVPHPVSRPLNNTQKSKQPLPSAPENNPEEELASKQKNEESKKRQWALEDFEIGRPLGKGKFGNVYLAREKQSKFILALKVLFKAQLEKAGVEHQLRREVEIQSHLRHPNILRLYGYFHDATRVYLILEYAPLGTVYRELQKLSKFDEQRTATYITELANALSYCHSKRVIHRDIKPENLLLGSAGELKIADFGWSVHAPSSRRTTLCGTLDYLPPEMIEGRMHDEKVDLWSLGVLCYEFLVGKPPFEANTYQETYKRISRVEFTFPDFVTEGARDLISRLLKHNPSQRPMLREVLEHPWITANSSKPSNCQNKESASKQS
# protocol_summary: AuroraA kinase assay (Kinase-Glo ATP consumption)
# Type: biochemical
# Set-up: key: ratio relative to ROCKII-inhibiting activity defined as 1.0 (from IC50s)
# measurement_setup: relative ratio to ROCKII (=1.0), based on IC50 values
Where a name gives a salt, the structure may show the parent alone.
metric: Realative Inhibitory Activity AuroraA

>>> number("C[C@H](N)C(=O)N1CCCN(S(O)(O)c2cccc3cncc(F)c23)[C@@H](C)C1 [Example 3, dihydrochloride]")
145
>>> number("CC[C@H](N)C(=O)N1CCCN(S(O)(O)c2cccc3cncc(F)c23)[C@@H](C)C1 [Example 11, dihydrochloride]")
210
>>> number("CC[C@@H](N)C(=O)N1CCCN(S(O)(O)c2cccc3cncc(F)c23)[C@@H](C)C1 [Example 12, dihydrochloride]")
244

###

Reported Realative Inhibitory Activity PKA is given for each of the following compounds.
# assayed_target: Purified bovine PKA (catalyst subunit) (Bos taurus)
# Construct: Purified bovine PKA (catalyst subunit, Promega); purchased Promega
# protocol_summary: PKA kinase assay (Kinase-Glo ATP consumption)
# Type: biochemical
# measurement_setup: relative ratio to ROCKII (=1.0), based on IC50 values
Structures can show the parent of a compound that is named as a salt.
metric: Realative Inhibitory Activity PKA

>>> result("CC[C@@H](N)C(=O)N1CCCN(S(O)(O)c2cccc3cncc(F)c23)[C@@H](C)C1 [Example 12, dihydrochloride]")
">300"
>>> result("C[C@H](N)C(=O)N1CCCN(S(O)(O)c2cccc3cncc(F)c23)[C@@H](C)C1 [Example 3, dihydrochloride]")
">300"
>>> result("CC(C)[C@@H](N)C(=O)N1CCCN(S(O)(O)c2cccc3cncc(F)c23)[C@@H](C)C1 [Example 6, dihydrochloride]")
">300"
>>> result("CC[C@H](N)C(=O)N1CCCN(S(O)(O)c2cccc3cncc(F)c23)[C@@H](C)C1 [Example 11, dihydrochloride]")
">300"
>>> result("CNCC(=O)N1CCCN(S(=O)(=O)c2cccc3cncc(F)c23)[C@@H](C)C1.Cl.Cl [Example 2]")
">3000"
